pKi: −log10 of the molar value.
A set of compounds tested on Msi1 (Homo sapiens, UniProt O43347), with measured pKi:

compound | pKi
O=C(O)CCc1cc2cc(NC(=O)c3ccc(F)cc3)ccc2s1 [KH-28A] | < 4.70
CC(C)(C)c1ccc(C(=O)Nc2ccc3sc(/C=C/C(N)=O)cc3c2)cc1 [KH-19C] | < 4.70
O=C(O)/C=C/c1cc2cc(NC(=O)c3ccc(S(F)(F)(F)(F)F)cc3)ccc2s1 [KH-33A] | 5.58
O=C(O)/C=C/c1cc2cc(NC(=O)c3ccc(F)cc3)ccc2s1 [KH-23A] | < 4.70
NNC(=O)CCc1cc2cc(NC(=O)c3ccc(C(F)(F)F)cc3)ccc2s1 [KH-29E] | < 4.70

* * *

# tested-system: full-length human HuR protein (Homo sapiens, UniProt Q15717)
# Construct: full-length human HuR protein was produced by the KU COBRE-PSF Protein Purification Group
# Sequence (Q15717 whole entry): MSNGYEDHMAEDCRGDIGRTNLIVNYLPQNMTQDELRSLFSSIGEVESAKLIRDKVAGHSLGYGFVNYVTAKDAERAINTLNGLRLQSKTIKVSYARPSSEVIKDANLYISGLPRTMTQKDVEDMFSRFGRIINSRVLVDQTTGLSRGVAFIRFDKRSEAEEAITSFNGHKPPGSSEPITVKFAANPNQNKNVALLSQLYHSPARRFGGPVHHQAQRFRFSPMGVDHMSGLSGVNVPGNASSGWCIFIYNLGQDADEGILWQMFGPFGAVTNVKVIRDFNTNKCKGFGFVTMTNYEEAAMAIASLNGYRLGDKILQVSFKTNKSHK
# assay-procedure: FP assay of HuR-Msi1 ARE binding inhibition
# test-parameters: HuR-Msi1 ARE interaction; read-out: HuR Ki via FP assay
Counter-ions that a name gives are not always drawn.
Ki strictly under 3 µM means condition met; at 3 µM or over means condition not met.

compound | tested-system | class-label
NNC(=O)CCc1cc2cc(NC(=O)c3ccc(C(F)(F)F)cc3)ccc2s1 [KH-29E] | full-length human HuR protein (Homo sapiens, UniProt Q15717) | condition not met
CN(C)c1ccc(C(=O)Nc2ccc3[nH]c(/C=C/C(=O)O)cc3c2)cc1 [KH-52A] | full-length human HuR protein (Homo sapiens, UniProt Q15717) | condition not met
O=C(O)/C=C/c1cc2cc(NC(=O)c3ccccn3)ccc2s1 [KH-47A, hydrochloride] | full-length human HuR protein (Homo sapiens, UniProt Q15717) | condition met
CC(C)(C)c1ccc(C(=O)Nc2ccc3sc(/C=C/C(=O)NO)cc3c2)cc1 [KH-19] | full-length human HuR protein (Homo sapiens, UniProt Q15717) | condition met
CC(C)(C)c1ccc(C(=O)Nc2ccc3sc(CCC(=O)NN)cc3c2)cc1 [KH-22E] | full-length human HuR protein (Homo sapiens, UniProt Q15717) | condition met
CC(C)c1ccc(C(=O)Nc2ccc3sc(CCC(=O)NN)cc3c2)cc1 [KH-37E] | full-length human HuR protein (Homo sapiens, UniProt Q15717) | condition not met
O=C(O)/C=C/c1cc2cc(NC(=O)c3ccc(F)cc3)ccc2s1 [KH-23A] | full-length human HuR protein (Homo sapiens, UniProt Q15717) | condition not met
O=C(/C=C/c1cc2cc(NC(=O)C3CCCCC3)ccc2s1)NO [KH-46] | full-length human HuR protein (Homo sapiens, UniProt Q15717) | condition met
CC(C)(C)c1cccc(C(=O)Nc2ccc3sc(CCC(=O)NO)cc3c2)c1 [KH-30] | full-length human HuR protein (Homo sapiens, UniProt Q15717) | condition not met

* * *

A set of molecules tested on Msi1 (Homo sapiens), with measured pKi:
pKi: −log10 of the molar value.

molecule | pKi
CC(C)c1ccc(C(=O)Nc2ccc3sc(CCC(=O)O)cc3c2)cc1 [KH-37A] | < 4.70
CC(C)(C)c1ccc(C(=O)Nc2ccc3[nH]c(C(=O)O)cc3c2)cc1 [KH-39A] | < 4.70
Cc1ccc(C(=O)Nc2ccc3sc(CCC(=O)O)cc3c2)cc1 [KH-27A] | < 4.70
CC(C)(C)c1cccc(C(=O)Nc2ccc3sc(CCC(=O)NN)cc3c2)c1 [KH-30E] | < 4.70
CN(C)c1ccc(C(=O)Nc2ccc3sc(CCC(=O)NN)cc3c2)cc1 [KH-38E] | < 4.70
O=C(O)CCc1cc2cc(NC(=O)c3ccc(S(F)(F)(F)(F)F)cc3)ccc2s1 [KH-34A] | < 4.70
CC(C)(C)c1ccc(C(=O)Nc2ccc3sc(/C=C/C(=O)NO)cc3c2)cc1 | 5.71
CC(C)c1ccc(C(=O)Nc2ccc3sc(CCC(=O)NN)cc3c2)cc1 [KH-37E] | < 4.70
CC(C)(C)c1ccc(C(=O)Nc2ccc3sc(CCC(N)=O)cc3c2)cc1 [KH-22C] | < 4.70
CC(C)(C)c1cccc(C(=O)Nc2ccc3sc(/C=C/C(=O)O)cc3c2)c1 [KH-31A] | 5.34
CC(C)(C)c1ccc(C(=O)Nc2ccc3sc(/C=C/C(=O)NN)cc3c2)cc1 [KH-19E] | < 4.70
CC(C)(C)c1cccc(C(=O)Nc2ccc3sc(CCC(=O)O)cc3c2)c1 [KH-30A] | < 4.70
CN(C)c1ccc(C(=O)Nc2ccc3sc(CCC(=O)O)cc3c2)cc1 [KH-38A] | < 4.70

* * *

# tested-system: Musashi 2 (Msi2) (Homo sapiens, UniProt Q96DH6)
# Sequence (Q96DH6 whole entry, species assumed): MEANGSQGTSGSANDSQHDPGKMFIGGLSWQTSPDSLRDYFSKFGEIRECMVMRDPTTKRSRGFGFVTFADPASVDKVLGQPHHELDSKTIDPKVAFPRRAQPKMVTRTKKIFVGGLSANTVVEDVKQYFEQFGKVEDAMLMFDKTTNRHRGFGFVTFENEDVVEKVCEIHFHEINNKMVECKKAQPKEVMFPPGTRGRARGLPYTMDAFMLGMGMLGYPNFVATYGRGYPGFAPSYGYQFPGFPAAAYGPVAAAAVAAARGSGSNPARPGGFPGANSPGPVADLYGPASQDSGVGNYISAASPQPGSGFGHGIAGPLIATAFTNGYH
# assay-procedure: Msi2 FP assay
# Assay type: binding
# test-parameters: cell marked (RRM1), read-out: Msi2 (Ki) (RRM1)
pKi: −log10 of the molar value. Structures can show the parent of a compound that is named as a salt.

compound | pKi
CC(C)(C)c1ccc(C(=O)Nc2ccc3sc(/C=C/C(=O)O)cc3c2)cc1 [KH-19A] | 6.55
O=C(/C=C/c1cc2cc(NC(=O)c3ccc(C(F)(F)F)cc3)ccc2s1)NO [KH-32] | 5.58
CN(C)c1ccc(C(=O)Nc2ccc3sc(/C=C/C(=O)O)cc3c2)cc1 [KH-36A] | 6.30
CN(C)c1ccc(C(=O)Nc2ccc3sc(C(=O)NO)cc3c2)cc1 [KH-58] | 5.47
O=C(Nc1ccc2sc(C(=O)O)cc2c1)c1ccccn1 [KH-60A, hydrochloride] | 5.34

* * *

# tested-system: full-length human HuR protein (Homo sapiens, UniProt Q15717)
# Construct: full-length human HuR protein was produced by the KU COBRE-PSF Protein Purification Group
# assay-procedure: FP assay of HuR-Msi1 ARE binding inhibition
# test-parameters: HuR-Msi1 ARE interaction; read-out: HuR Ki via FP assay
# Method: A fluorescence polarization (FP)-based binding assay was utilized to assess the inhibition of HuR protein interaction with the ARE site of Msi1 mRNA (“HuR-Msi1^ARE”) by compounds of interest. […] With the FP assay of HuR-Msi1ARE binding, the inhibition of the HuR-Msi1ARE interaction by various compounds of the present technology was assessed. […]
pKi: −log10 of the molar value. Counter-ions that a name gives are not always drawn.
readout-type: pKi

compound | readout-type | relation-qualifier | test-value
O=C(CCc1cc2cc(NC(=O)c3ccc(C(F)(F)F)cc3)ccc2s1)NO | pKi | = | 5.60
O=C(Nc1ccc2[nH]c(C(=O)NO)cc2c1)c1ccccn1 [KH-56, hydrochloride] | pKi | < | 4.70
O=C(O)CCc1cc2cc(NC(=O)c3ccc(S(F)(F)(F)(F)F)cc3)ccc2s1 [KH-34A] | pKi | = | 5.24
CN(C)c1ccc(C(=O)Nc2ccc3[nH]c(/C=C/C(=O)NO)cc3c2)cc1 | pKi | = | 6.16
CC(C)(C)c1ccc(C(=O)Nc2ccc3sc(CCC(=O)NO)cc3c2)cc1 | pKi | = | 6.08
Cc1ccc(C(=O)Nc2ccc3sc(CCC(=O)NO)cc3c2)cc1 | pKi | = | 5.43
O=C(CCc1cc2cc(NC(=O)c3ccc(S(F)(F)(F)(F)F)cc3)ccc2s1)NO | pKi | = | 5.82
CC(C)(C)c1ccc(C(=O)Nc2ccc3sc(/C=C/C(=O)NN)cc3c2)cc1 [KH-19E] | pKi | = | 6.72
CC(C)(C)c1ccc(C(=O)Nc2ccc3sc(C(=O)O)cc3c2)cc1 [KH-43A] | pKi | = | 5.29

* * *

# Test system: triple-negative breast cancer cell line MDA-MB-231
# assay-procedure: Cytotoxicity assay (WST-8), MDA-MB-231
# Type: cell-based
# test-parameters: Homo sapiens, 96 h incubation
Structures can show the parent of a compound that is named as a salt.

molecule | quantity-unit | relation-qualifier | IC50
CC(C)(C)c1cccc(C(=O)Nc2ccc3sc(/C=C/C(=O)O)cc3c2)c1 [KH-31A] | µM | = | 95.3
CN(C)c1ccc(C(=O)Nc2ccc3sc(CCC(=O)NO)cc3c2)cc1 [KH-38] | µM | = | 25.9
CN(C)c1ccc(C(=O)Nc2ccc3[nH]c(/C=C/C(=O)NO)cc3c2)cc1 [KH-52] | µM | = | 8.91
O=C(Nc1ccc2sc(C(=O)O)cc2c1)c1ccccn1 [KH-60A, hydrochloride] | µM | > | 100
CC(C)(C)c1ccc(C(=O)Nc2ccc3sc(CCC(=O)NN)cc3c2)cc1 [KH-22E] | µM | = | 8.56
CC(C)(C)c1ccc(C(=O)Nc2ccc3[nH]c(C(=O)O)cc3c2)cc1 [KH-39A] | µM | > | 100
CC(C)(C)c1ccc(C(=O)Nc2ccc3[nH]c(C(=O)NO)cc3c2)cc1 [KH-39] | µM | = | 4.74
CC(C)(C)c1ccc(C(=O)Nc2ccc3[nH]c(C(=O)NN)cc3c2)cc1 [KH-39E] | µM | = | 13.5
Cc1ccc(C(=O)Nc2ccc3sc(CCC(=O)NO)cc3c2)cc1 [KH-27] | µM | = | 9.34

The reported measurements were obtained from patent US20220213052A1.
